The reported numbers originate from paper PMC9482650.

Target: GORASP1, Q9BQQ3
Sequence (Q9BQQ3 1-208): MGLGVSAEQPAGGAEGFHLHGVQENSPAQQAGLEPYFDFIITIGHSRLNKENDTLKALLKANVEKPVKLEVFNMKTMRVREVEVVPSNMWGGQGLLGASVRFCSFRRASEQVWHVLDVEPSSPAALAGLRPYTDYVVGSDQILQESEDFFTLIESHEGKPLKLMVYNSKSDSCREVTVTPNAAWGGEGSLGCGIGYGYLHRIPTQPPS
Assay: holdup assay
Parameters: key: below the threshold = too weak to quantify, mostly under pKd 3.1 to 4
Settings: plain residues with an end cap or a label only (N-terminal biotin on a linker: ttds)
quantityName: pKd

binder	quantityName	result
VNKVWDQSSV [CIT, O14578]	pKd	below the threshold
LDSQIQETSI [MAP4, P27816]	pKd	below the threshold
DPRNTQTSQI [ABRAXAS2, Q15018]	pKd	3.56
